Target: Cholinesterase (Equus caballus) (UniProt P81908)
Sequence (P81908 whole entry): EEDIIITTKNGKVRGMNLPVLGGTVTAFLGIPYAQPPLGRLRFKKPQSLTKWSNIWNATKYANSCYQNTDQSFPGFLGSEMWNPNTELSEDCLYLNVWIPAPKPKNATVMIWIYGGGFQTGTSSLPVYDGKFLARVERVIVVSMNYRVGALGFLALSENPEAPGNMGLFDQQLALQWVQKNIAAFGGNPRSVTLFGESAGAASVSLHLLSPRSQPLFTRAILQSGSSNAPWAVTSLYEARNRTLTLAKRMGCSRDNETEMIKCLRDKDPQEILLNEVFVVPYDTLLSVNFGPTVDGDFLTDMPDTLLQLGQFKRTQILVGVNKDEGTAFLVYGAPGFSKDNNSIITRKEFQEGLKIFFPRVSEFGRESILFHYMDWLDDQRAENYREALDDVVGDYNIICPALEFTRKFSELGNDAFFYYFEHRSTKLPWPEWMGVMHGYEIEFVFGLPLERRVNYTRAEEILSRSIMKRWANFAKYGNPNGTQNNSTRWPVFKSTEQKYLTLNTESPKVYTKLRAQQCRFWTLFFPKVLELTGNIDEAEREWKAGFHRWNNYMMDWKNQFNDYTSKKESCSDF
Assay: Reversible inhibition of horse serum BChE at Ki using 25 mM of butyrylthiocholine as substrate preincubated for 1 min followed by substrate addition by spectrophotometry relative to control
Would you please tag the item criterion met when its fold change (FC) is 0.9 or above, and criterion not met when it is below?

> print(dat)
                 chemical.structure        group.label
1  CCCCOP(=O)(OCCCC)Oc1cccc2ccccc12  criterion not met
2      CCCCOP(=O)(OCCCC)OCCc1ccccc1      criterion met
3  CCCCOP(=O)(OCCCC)Oc1ccc2ccccc2c1  criterion not met
4      CCCCOP(=O)(OCCCC)OCc1ccccc1C      criterion met
5  CCCCOP(=O)(OCCCC)Oc1cc(C)cc(C)c1  criterion not met
6    CCCCOP(=O)(OCCCC)OCc1cccc(C)c1      criterion met
7     CCCCOP(=O)(OCCCC)Oc1ccc(C)cc1      criterion met
8     CCCCOP(=O)(OCCCC)Oc1cccc(C)c1      criterion met
9  CCCCOP(=O)(OCCCC)Oc1ccc(C)c(C)c1      criterion met

---

Organism: Bos taurus
Experiment: Inhibition of bovine pancreas alpha-chymotrypsin using N-benzoyl-l-tyrosine ethyl ester as substrate by spectrophotometry relative to control
Rule: fold change (FC) under 0.9 gives NO, otherwise YES.

> print(dat)
                    chemical.structure  group.label
1         CCCCOP(=O)(OCCCC)OCc1ccccc1C          YES
2          CCCCOP(=O)(OCCCC)OCc1ccccc1          YES
3        CCCCOP(=O)(OCCCC)Oc1ccc(C)cc1          YES
4       CCCCOP(=O)(OCCCC)OCc1cccc(C)c1          YES
5     CCCCOP(=O)(OCCCC)Oc1ccc(C)c(C)c1          YES
6     CCCCOP(=O)(OCCCC)Oc1cccc2ccccc12          YES
7     CCCCOP(=O)(OCCCC)Oc1cc(C)cc(C)c1          YES
8     CCCCOP(=O)(OCCCC)Oc1ccc2ccccc2c1           NO
9  CCCCOP(=O)(OCCCC)Oc1cc(C)c(C)c(C)c1           NO

---

Molecular target: Cholinesterase (Equus caballus) (UniProt P81908)
Experiment: Inhibition of horse serum BChE at 500 uM using butyrylthiocholine as substrate by spectrophotometry relative to control
Reported values of fold change (FC) for individual entries
measurement-kind: fold change (FC)

> print(dat)
                     chemical.structure  data.value
 1     CCCCOP(=O)(OCCCC)Oc1cccc2ccccc12        0.21
 2          CCCCOP(=O)(OCCCC)Oc1ccccc1C        0.27
 3         CCCCOP(=O)(OCCCC)OCc1ccccc1C        0.04
 4  CCCCOP(=O)(OCCCC)Oc1cc(C)c(C)c(C)c1        0.09
 5     CCCCOP(=O)(OCCCC)Oc1cc(C)cc(C)c1        0.01
 6     CCCCOP(=O)(OCCCC)Oc1ccc(C)c(C)c1        0.04
 7     CCCCOP(=O)(OCCCC)Oc1ccc2ccccc2c1        0.01
 8        CCCCOP(=O)(OCCCC)Oc1cccc(C)c1        0.15
 9       CCCCOP(=O)(OCCCC)OCc1ccc(C)cc1        0.04
10        CCCCOP(=O)(OCCCC)Oc1ccc(C)cc1        0.02
11         CCCCOP(=O)(OCCCC)OCCc1ccccc1        0.11
12       CCCCOP(=O)(OCCCC)OCc1cccc(C)c1        0.12
13          CCCCOP(=O)(OCCCC)OCc1ccccc1        0.01

---

Target: Acetylcholinesterase (Electrophorus electricus) (UniProt O42275)
Sequence (O42275 24-633 limits assumed): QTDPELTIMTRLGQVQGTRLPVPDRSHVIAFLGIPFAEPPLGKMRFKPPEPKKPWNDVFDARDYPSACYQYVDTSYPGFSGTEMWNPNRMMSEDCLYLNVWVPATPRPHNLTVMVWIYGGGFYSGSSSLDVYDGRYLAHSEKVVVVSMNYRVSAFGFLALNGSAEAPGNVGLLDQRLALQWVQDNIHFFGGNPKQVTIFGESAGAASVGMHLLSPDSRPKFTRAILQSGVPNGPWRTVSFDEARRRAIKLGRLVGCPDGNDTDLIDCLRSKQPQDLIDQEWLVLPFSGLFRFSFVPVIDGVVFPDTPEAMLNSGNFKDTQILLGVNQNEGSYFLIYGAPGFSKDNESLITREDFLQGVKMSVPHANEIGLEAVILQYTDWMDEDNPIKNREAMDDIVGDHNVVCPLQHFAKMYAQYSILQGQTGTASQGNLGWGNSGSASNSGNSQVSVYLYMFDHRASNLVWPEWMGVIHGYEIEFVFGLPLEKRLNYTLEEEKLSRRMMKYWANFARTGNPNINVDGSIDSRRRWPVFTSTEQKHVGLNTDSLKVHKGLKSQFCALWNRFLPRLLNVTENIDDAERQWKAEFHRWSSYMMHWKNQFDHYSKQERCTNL
Experiment: Inhibition of electric eel AChE at 500 uM using acetylthiocholine as substrate by spectrophotometry relative to control
measurement-kind: fold change (FC)

> print(dat)
                     chemical.structure  data.value
 1        CCCCOP(=O)(OCCCC)Oc1ccc(C)cc1        0.89
 2          CCCCOP(=O)(OCCCC)OCc1ccccc1           1
 3  CCCCOP(=O)(OCCCC)Oc1cc(C)c(C)c(C)c1        1.09
 4        CCCCOP(=O)(OCCCC)Oc1cccc(C)c1        0.99
 5       CCCCOP(=O)(OCCCC)OCc1ccc(C)cc1        0.87
 6     CCCCOP(=O)(OCCCC)Oc1ccc(C)c(C)c1        1.04
 7          CCCCOP(=O)(OCCCC)Oc1ccccc1C        0.99
 8         CCCCOP(=O)(OCCCC)OCCc1ccccc1        1.02
 9       CCCCOP(=O)(OCCCC)OCc1cccc(C)c1        0.86
10         CCCCOP(=O)(OCCCC)OCc1ccccc1C        0.98
11     CCCCOP(=O)(OCCCC)Oc1ccc2ccccc2c1        1.05
12     CCCCOP(=O)(OCCCC)Oc1cc(C)cc(C)c1           1
13     CCCCOP(=O)(OCCCC)Oc1cccc2ccccc12        1.07

---

Molecular target: Cholinesterase (Equus caballus)
Sequence (P81908 whole entry): as the sequence (P81908 whole entry) above
Assay: Inhibition of horse serum BChE using butyrylthiocholine as substrate by spectrophotometry
pKi: −log10 of the molar value.
In this section we review reported pKi values for a set of molecules.
measurement-kind: pKi

> print(dat)
                     chemical.structure  data.value
 1         CCCCOP(=O)(OCCCC)OCc1ccccc1C        4.14
 2        CCCCOP(=O)(OCCCC)Oc1cccc(C)c1        4.80
 3        CCCCOP(=O)(OCCCC)Oc1ccc(C)cc1        5.10
 4               CCOP(=O)(OCC)Oc1ccccc1        2.80
 5  CCCCOP(=O)(OCCCC)Oc1cc(C)c(C)c(C)c1        4.96
 6         CCOP(=O)(OCC)Oc1ccc2ccccc2c1        3.83
 7         CCCCOP(=O)(OCCCC)OCCc1ccccc1        4.28
 8     CCCCOP(=O)(OCCCC)Oc1ccc2ccccc2c1        5.72
 9         CCCCCOP(=O)(OCCCCC)Oc1ccccc1        5.22
10         CCOP(=O)(OCC)Oc1cc(C)cc(C)c1        3.23
11     CCCCOP(=O)(OCCCC)Oc1ccc(C)c(C)c1        5.05
12       CCCCOP(=O)(OCCCC)OCc1cccc(C)c1        4.62
13          CCCCOP(=O)(OCCCC)OCc1ccccc1        5.70
14          CCCCOP(=O)(OCCCC)Oc1ccccc1C        4.30
15     CCCCOP(=O)(OCCCC)Oc1cc(C)cc(C)c1        6.00
16     CCCCOP(=O)(OCCCC)Oc1cccc2ccccc12        4.66
17       CCCCOP(=O)(OCCCC)OCc1ccc(C)cc1        4.85

---

Target: Cholinesterase (Equus caballus) (UniProt P81908)
Experiment: Reversible inhibition of horse serum BChE at Ki using 25 mM of butyrylthiocholine as substrate preincubated for 1 min followed by substrate addition by spectrophotometry relative to control
measurement-kind: fold change (FC)

> print(dat)
                    chemical.structure  measurement.kind  data.value
1       CCCCOP(=O)(OCCCC)OCc1ccc(C)cc1  fold change (FC)        0.92
2          CCCCOP(=O)(OCCCC)OCc1ccccc1  fold change (FC)        0.92
3  CCCCOP(=O)(OCCCC)Oc1cc(C)c(C)c(C)c1  fold change (FC)        0.88
4          CCCCOP(=O)(OCCCC)Oc1ccccc1C  fold change (FC)        0.91

---

fold change (FC) values by entry
Organism: Bos taurus
Assay: Inhibition of bovine pancreas alpha-chymotrypsin using N-benzoyl-l-tyrosine ethyl ester as substrate by spectrophotometry relative to control
measurement-kind: fold change (FC)

> print(dat)
               chemical.structure  measurement.kind  data.value
1    CCCCOP(=O)(OCCCC)OCCc1ccccc1  fold change (FC)        0.89
2     CCCCOP(=O)(OCCCC)Oc1ccccc1C  fold change (FC)        0.92
3  CCCCOP(=O)(OCCCC)OCc1ccc(C)cc1  fold change (FC)        0.92
4   CCCCOP(=O)(OCCCC)Oc1cccc(C)c1  fold change (FC)        0.89

Data provenance is ChEMBL document CHEMBL4033639.
